System: BT474
EXPERIMENT NOTES: Cytotoxicity assay (SRB), BT474
Assay type: cell-based
CONDITION SET: Homo sapiens, BT-474, 144 h, BT474 cells, SRB, 6 days; read-out: In Vitro Cellular Activity IC50 BT474
pIC50: −log10 of the molar value.
Reported pIC50 is given for each of the following compounds.
ENDPOINT LABEL: pIC50

In [3]: df
Out[3]:
                             molecule_smiles  result_modifier  recorded_value
 0  COC[C@H]1CCCN1Cc1ccc(N/C=C2\C(=O)NC(=O)c3ccc(-c4ccc(OC(C)C)cc4)cc32)cc1                =            4.77
 1  C[C@@H]1CN(c2ccc(N/C=C3\C(=O)NC(=O)c4ccc(-c5ccoc5)cc43)cc2F)C[C@H](C)N1                =            6.13
 2  O=C1NC(=O)c2ccc(Br)cc2/C1=C/Nc1cc(F)c(N2CCN3CCC[C@H]3C2)c(F)c1                =            5.20
 3    O=C1NC(=O)c2ccc(Br)cc2/C1=C/NCc1cccnc1                =            4.51
 4  COc1ccc(CN/C=C2\C(=O)NC(=O)c3ccccc32)cc1O                =            4.77
 5  O=C1NC(=O)c2ccc(Br)cc2/C1=C/NCc1ccc(NC(=O)C(Cl)Cl)c(O)c1                =            5.70
 6  O=C1NC(=O)c2ccc(Br)cc2/C1=C/N1CCN(CCN2CCOCC2)CC1                =            4.43
 7   O=C1NC(=O)c2ccccc2/C1=C/Nc1ccc2ncccc2c1                <            4.30
 8    O=C1NCc2ccccc2C1=CNc1ccc(CN2CCCCC2)cc1                =            4.64
 9  CN(C)CCOc1ccc(N/C=C2\C(=O)NC(=O)c3ccc(Br)cc32)cc1                =            5.08
10  CC(C)N1CCN(c2ccc(N/C=C3\C(=O)NC(=O)c4ccc(I)cc43)cc2)CC1                =            5.15
11  CO[C@@H]1CCN(Cc2ccc(N/C=C3\C(=O)NC(=O)c4ccc(Br)cc43)cc2)C1                =            5.04
12  CN1CCN(CCCNC=C2C(=O)NC(=O)c3ccc(-n4cccc4)cc32)CC1                =            5.22
13  CCCOc1ccc(CN/C=C2\C(=O)NC(=O)c3ccc(I)cc32)cc1OC(=O)CCl                =            6.16
14  O=C1NC(=O)c2ccc(Br)cc2/C1=C/NCc1cc(O)ccc1O                =            5.08
15  CC#CC(=O)Nc1ccc(CN/C=C2\C(=O)NC(=O)c3ccc(I)cc32)cc1O                =            5.29
16  CCCOc1cc(CN/C=C2\C(=O)NC(=O)c3ccc(Br)cc32)cc(O)c1OCCC                =            4.33

The reported numbers originate from patent US7713994B2.
